# Experimental protocol: qHTS assay to identify small molecule agonists of the RXR signaling pathway - cell viability counter screen (AID 1159529); note: nearly all actives have a fitted effect of over 50% in size
# Stated conditions: RXR-alpha-bla HEK293T viability, CellTiter-Glo, 16 h; series mostly up to 76.8 µM
Inconclusive results are not listed. Active and inactive are the calls of the source. Calls come from the whole dose curve; as a rule, active = well fitted cell-killing curve with a large enough effect in the repeat runs; inconclusive = weak or mixed curves, or effect the other way; inactive = no such curve, though single readings can be large or run the other way.
Labels: active, inactive

Cn1c(=O)c2c(ncn2C)n(C)c1=O; inactive
O=C1NS(=O)(=O)c2ccccc21; inactive
Nc1c2c(nc3ccccc13)CCCC2; inactive
CC/C(=C(\c1ccccc1)c1ccc(OCCN(C)C)cc1)c1ccccc1; active
CC(=O)Nc1c(I)c(NC(C)=O)c(I)c(C(=O)O)c1I; inactive
O=C(O)c1ccccc1; inactive
OC[C@H]1O[C@H](O[C@]2(CCl)O[C@H](CCl)[C@@H](O)[C@@H]2O)[C@H](O)[C@@H](O)[C@H]1Cl; inactive
CCCCCCCC(=O)OCC(COC(=O)CCCCCCC)OC(=O)CCCCCCC; inactive
CNNCc1ccc(C(=O)NC(C)C)cc1; inactive
CN1CCc2cccc3c2[C@H]1Cc1ccc(O)c(O)c1-3; active
C=CCc1ccc(O)c(OC)c1; inactive
CC(O)(P(=O)(O)O)P(=O)(O)O; inactive
